test: Acute toxicity, oral LD50; conditions: rat, in vivo, CFY rats, deaths within 48 h, Litchfield and Wilcoxon
observable: LD50 at 48 h (mg/kg)
Your answer should be a plain number; it is taken to be in mg/kg.

The value of LD50 at 48 h measured for the compound CCSc1c(N)cnc2cc(Cl)ccc12.Cl turned out to be 465
